# Tested on: Mus musculus
# protocol_text: Analgesic activity in albino mouse assessed as effect on […] at 10 mg/kg, ip after 1 hrs by hot plate test
# Type: functional
# measurement_context: route intraperitoneal
recorded_metric: Activity (%)
Answers are plain numbers, in %.

NC(=O)C1=C(N)C2=C(c3ccccc3)C(c3ccccc3)=NNC2[Se]1 (stereo not given); 97.8
NC1=C(C(=O)c2ccccc2)[Se]C2NN=C(c3ccccc3)C(c3ccccc3)=C12 (stereo not given); 27.1
CC(=O)Oc1ccccc1C(=O)O; 58.9
N#CC1=C(N)C2=C(c3ccccc3)C(c3ccccc3)=NNC2[Se]1 (stereo not given); 77.9

Prompt: In one line, give reported Activity of the entry CCOC(=O)C1=C(N)C2=C(c3ccccc3)C(c3ccccc3)=NNC2[Se]1 (stereo not given) .
Completion: 42.8

---

# System: Rattus norvegicus
# protocol_text: Antiinflammatory activity in albino rat assessed as inhibition of carrageenan-induced paw edema at 10 mg/kg, ip after 1 hrs
# Assay type: functional
# measurement_context: route intraperitoneal
recorded_metric: inhibition in vivo at 10 mg/kg
Reply with the number and its unit after it.

Quick request: inhibition in vivo at 10 mg/kg for each listed item, please.
1. O=C1NC2(CCCCC2)NC2=C1[Se]C1NN=C(c3ccccc3)C(c3ccccc3)=C21 (stereo not given)
2. N#Cc1c(-c2ccccc2)c(-c2ccccc2)n[nH]c1=[Se]
3. NC1=C(C(=O)c2ccccc2)[Se]C2NN=C(c3ccccc3)C(c3ccccc3)=C12 (stereo not given)
4. NC(=O)C1=C(N)C2=C(c3ccccc3)C(c3ccccc3)=NNC2[Se]1 (stereo not given)
5. CC(=O)C1=C(N)C2=C(c3ccccc3)C(c3ccccc3)=NNC2[Se]1 (stereo not given)

Completion:
1. 9.9%
2. 17.2%
3. 9%
4. 14.7%
5. 17.2%

---

# Tested on: Mus musculus
# protocol_text: Analgesic activity in albino mouse assessed as effect on […] at 10 mg/kg, ip after 5 hrs by hot plate test
# Assay type: functional
# measurement_context: route intraperitoneal
Kindly supply the reported Activity values for the records listed here.
Give bare numbers, in %.

Previously resolved entries follow.
NC(=O)C1=C(N)C2=C(c3ccccc3)C(c3ccccc3)=NNC2[Se]1 (stereo not given); 83.4
CCOC(=O)C1=C(N)C2=C(c3ccccc3)C(c3ccccc3)=NNC2[Se]1 (stereo not given); 33.4
N#CC1=C(N)C2=C(c3ccccc3)C(c3ccccc3)=NNC2[Se]1 (stereo not given); 65.3
CC(=O)Oc1ccccc1C(=O)O [ASPIRIN]; 30.01

Alright, here's another molecule for you.
Prompt: Return Activity (reported value) for this molecule: NC1=C(C(=O)c2ccccc2)[Se]C2NN=C(c3ccccc3)C(c3ccccc3)=C12 (stereo not given)
Completion: 24.2

---

# System: Mus musculus
# protocol_text: Analgesic activity in albino mouse assessed as effect on […] at 10 mg/kg, ip after 3 hrs by hot plate test
# Format: functional
# measurement_context: route intraperitoneal
Mark y for reported Activity of 80% or greater; mark n for anything smaller.

Observe how each entry below is paired with its result.
CC(=O)Oc1ccccc1C(=O)O [ASPIRIN]; n
NC(=O)C1=C(N)C2=C(c3ccccc3)C(c3ccccc3)=NNC2[Se]1 (stereo not given); y
CCOC(=O)C1=C(N)C2=C(c3ccccc3)C(c3ccccc3)=NNC2[Se]1 (stereo not given); n

Now look at this one.
Prompt: Hi, just wondering whether NC1=C(C(=O)c2ccccc2)[Se]C2NN=C(c3ccccc3)C(c3ccccc3)=C12 (stereo not given) shows Activity of 80% or higher.
Completion: n
